Where do these numbers come from? They come from ChEMBL document CHEMBL6078687.

half-life overview
assay: Half life in Sprague-Dawley rat at 20 mg/kg, po measured for 15 to 1440 mins by LC-MS/MS analysis; assay type: ADME, organism-based; conditions: in vivo, time 15-1440 min
measured-parameter: half-life (h)

{"columns": ["line-notation", "experimental-result"],
 "data": [
  ["CCC(CC)O[C@@H]1C=C(C(=O)O)C[C@H](NCc2ccc(OCc3cccc(B(O)O)c3)cc2Cl)[C@H]1NC(C)=O", 0.69],
  ["CCC(CC)O[C@@H]1C=C(C(=O)O)C[C@H](NCc2ccc(OCc3cccc(B(O)O)c3)cc2C)[C@H]1NC(C)=O", 1.31]
]}

* * *

remaining at 2 h overview
assay: in vitro; conditions: human, liver microsomes
measured-parameter: remaining at 2 h (%)

{"columns": ["compound", "output-unit", "experimental-result"],
 "data": [
  ["CC(C)NCC(O)COc1cccc2ccccc12 (configuration not stated)", "%", 0.5],
  ["C[C@]12CC[C@H]3[C@@H](CCC4=CC(=O)CC[C@@]43C)[C@@H]1CC[C@@H]2O", "%", 4.1]
]}

* * *

microsomal CLint at 2 h overview
assay: in vitro; conditions: human, liver microsomes

{"columns": ["molecule", "microsomal CLint at 2 h, µL/min/mg"],
 "data": [
  ["CCC(CC)O[C@@H]1C=C(C(=O)O)C[C@H](NCc2ccc(OCc3cccc(B(O)O)c3)cc2C)[C@H]1NC(C)=O", 11.2],
  ["O=C(O)Cc1ccccc1Nc1c(Cl)cccc1Cl", 222],
  ["CCC(CC)O[C@@H]1C=C(C(=O)O)C[C@H](NCc2ccc(OCc3cccc(B(O)O)c3)cc2Cl)[C@H]1NC(C)=O", 13.6],
  ["CCC(CC)O[C@@H]1C=C(C(=O)O)C[C@H](N)[C@H]1NC(C)=O [OSELTAMIVIR CARBOXYLATE]", 13.1]
]}
